System Name: HLA-DR DRB1*0301 (human)
Test Details: competition vs 125I-labeled peptide, purified HLA
Property Measured: IC50 (nM)

- VSLVKSDQICIGYHA (modifications not checked) [Flu.HA.11]: 511
- CPKYVKSNRLVLATGL (modifications not checked) [Flu.HA.318]: 2920
- CEQIADSQHRSHRQM (modifications not checked) [Flu.M1.154]: 804
- LLVLMENERTLDFHD (modifications not checked) [Flu.HA.444]: 64

All values here come from patent US20080032921A1.
